The variants listed here are annotated with their protein stability index.
B1: EDARADD (parent)
chain: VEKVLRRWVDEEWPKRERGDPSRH

Variants of: B1
Method Notes: protein stability index of a GFP-peptide fusion (GPS, HEK-293T) (PSI 1-6); higher = more stable;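 further: lentivirally expressed fusions sorted by FACS into six bins by GFP to DsRed ratio, PSI derived from sequencing read proportions per bin multiplied by bin number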
Protocol Conditions: c terminus: a fixed tail appended

Guide cases for protein stability index, answers given:
W13H 4
D20L 2.5
E12K 2.66
P14S 2.59
R6N 3.94
E11C 2.43

[in] Quick one: protein stability index of E12S ?
[out] 2.36

[in] Quick one: protein stability index of V1N ?
[out] 3.91

From: the supplement of paper PMC10567573
